Measured values drawn from ChEMBL document CHEMBL1201862 for this set.

# System: EKVX
# Assay: NCI tumour cell line growth inhibition, 48 h
Activity calls are given as the source filed them. Cut-off read from the data, not from the text of the source: active = GI50 up to about 1.1 µM and inactive = higher.
Quick reference for GI50 among some molecules

- Molecule: "COc1ccc(C(=O)/C=C/c2ccc(OCC(=N)N)cc2)cc1OC"
  GI50: "7.36 µM (inactive)"
- Molecule: "COc1ccccc1/C=C\\C(=O)C1COCN1 (centres undefined)"
  GI50: "19.4 µM (inactive)"
- Molecule: "c1ccc([P+](CCSCCSCC[P+](c2ccccc2)(c2ccccc2)c2ccccc2)(c2ccccc2)c2ccccc2)cc1"
  GI50: "> 100 µM (inactive)"
- Molecule: "NC1=NC(=O)[C@H](Cc2c[nH]c3ccccc23)N1C(=O)OCc1ccccc1"
  GI50: "45.3 µM (inactive)"
- Molecule: "c1ccc(CN2C3C4N(Cc5ccccc5)C2C2N(Cc5ccccc5)C(C(N2Cc2ccccc2)N4Cc2ccccc2)N3Cc2ccccc2)cc1"
  GI50: "> 100 µM (inactive)"
- Molecule: "COc1ccc(/C=C2\\CCC(CNc3cc(C)on3)C2=O)cc1 (centres undefined)"
  GI50: "> 100 µM (inactive)"
- Molecule: "COc1ccc(/C=C/c2cc(OC)c(OC)c(OC)c2)cc1OC"
  GI50: "> 100 µM (inactive)"
- Molecule: "CN(C)C1(N(C)C)Oc2c(c(=O)n(C)c(=O)n2C)C(c2ccc(Br)cc2)C1(F)F (centres undefined)"
  GI50: "> 100 µM (inactive)"
- Molecule: "Cc1ccc2nc(Cl)c(/C=N/N3C(=O)/C(=C/Cc4ccco4)N=C3c3ccccc3)cc2c1"
  GI50: "30.5 µM (inactive)"

* * *

# Tested on: RPMI-8226
# Assay: NCI tumour cell line growth inhibition, 48 h
Calls of active or inactive are those of the source. Cut-off read from the data, not from the text of the source: active = GI50 up to about 1.1 µM and inactive = higher.

- Compound: "CN(C)CCCN1CCc2c([nH]c3ccccc23)C1c1cccnc1 (stereo not given)"
  GI50: "> 100 µM (inactive)"
- Compound: "CC(=O)N1N=C(c2ccc3ccccc3c2O)CC1C(=O)c1ccco1 (stereo not given)"
  GI50: "17.2 µM (inactive)"
- Compound: "CCN(CC)CC[S+]([O-])c1c2cc(OC)ccc2nc2ccc(OC)cc12 (stereo not given)"
  GI50: "2.63 µM (inactive)"
- Compound: "NC(=O)c1cc2ccccc2o/c1=N/O"
  GI50: "> 100 µM (inactive)"
- Compound: "OC(c1cc(-c2ccc(C(F)(F)F)cc2)nc(C(F)(F)F)c1)C1CCCCN1 (stereo not given) [ENPIROLINE PHOSPHATE]"
  GI50: "2.61 µM (inactive)"
- Compound: "C[N+](C)(C)CCCCCc1c2nc(c(CCCCC[N+](C)(C)C)c3ccc([nH]3)c(CCCCC[N+](C)(C)C)c3nc(c(CCCCC[N+](C)(C)C)c4ccc1[nH]4)C=C3)C=C2"
  GI50: "> 100 µM (inactive)"
- Compound: "Cc1ccc(/C=N\\NC(=O)c2ccncc2)s1"
  GI50: "> 100 µM (inactive)"
- Compound: "CCOC(=O)Nn1cnnc1Cc1ccccc1"
  GI50: "> 100 µM (inactive)"
- Compound: "Cn1c2ccccc2c(=S)c2cc(NC(=O)CCCCC(=O)Nc3ccc4c(c3)c(=S)c3ccccc3n4C)ccc21"
  GI50: "> 100 µM (inactive)"
- Compound: "CCOC(=O)C(NC(=O)CC)(Nc1ccc(S(=O)(=O)Nc2nc(C)cc(C)n2)cc1)C(F)(F)F (stereo not given)"
  GI50: "> 100 µM (inactive)"
